Data credit: ChEMBL document CHEMBL5614446

# Target System: Proto-oncogene tyrosine-protein kinase receptor Ret (Homo sapiens, UniProt P07949)
# Sequence (P07949 whole entry): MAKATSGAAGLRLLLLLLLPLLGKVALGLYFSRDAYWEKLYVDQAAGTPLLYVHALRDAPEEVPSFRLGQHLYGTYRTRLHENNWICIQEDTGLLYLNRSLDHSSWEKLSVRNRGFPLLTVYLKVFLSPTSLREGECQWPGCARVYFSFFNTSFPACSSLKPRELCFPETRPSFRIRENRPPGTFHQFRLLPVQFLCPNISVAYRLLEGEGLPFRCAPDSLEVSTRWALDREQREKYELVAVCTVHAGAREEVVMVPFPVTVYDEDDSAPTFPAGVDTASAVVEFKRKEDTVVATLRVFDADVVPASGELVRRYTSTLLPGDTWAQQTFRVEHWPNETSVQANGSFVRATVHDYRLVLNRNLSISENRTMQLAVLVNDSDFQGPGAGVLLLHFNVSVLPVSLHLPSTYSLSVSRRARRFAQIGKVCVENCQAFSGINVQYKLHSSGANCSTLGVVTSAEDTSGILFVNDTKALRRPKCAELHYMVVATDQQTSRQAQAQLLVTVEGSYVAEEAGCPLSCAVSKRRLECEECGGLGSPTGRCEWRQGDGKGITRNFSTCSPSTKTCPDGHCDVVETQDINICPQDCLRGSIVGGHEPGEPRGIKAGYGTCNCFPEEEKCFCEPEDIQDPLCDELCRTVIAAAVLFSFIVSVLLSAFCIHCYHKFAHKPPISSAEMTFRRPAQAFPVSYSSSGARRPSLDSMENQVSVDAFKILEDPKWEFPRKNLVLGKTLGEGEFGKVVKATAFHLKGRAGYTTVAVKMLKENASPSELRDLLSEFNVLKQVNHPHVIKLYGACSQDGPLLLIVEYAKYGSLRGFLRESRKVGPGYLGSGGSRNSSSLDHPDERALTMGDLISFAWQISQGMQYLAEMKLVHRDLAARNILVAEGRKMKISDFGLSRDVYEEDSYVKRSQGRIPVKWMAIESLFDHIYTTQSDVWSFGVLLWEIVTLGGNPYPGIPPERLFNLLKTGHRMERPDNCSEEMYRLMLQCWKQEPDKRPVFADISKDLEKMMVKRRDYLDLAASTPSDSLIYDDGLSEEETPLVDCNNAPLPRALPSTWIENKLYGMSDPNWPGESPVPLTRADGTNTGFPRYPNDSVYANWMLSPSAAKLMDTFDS
// reported pIC50 for each item listed
Please keep in mind that pIC50 is minus log10 of the molar concentration; only the number is needed.

Cc1ccc(C(=O)Nc2ccc(CN3CCN(C)CC3)c(C(F)(F)F)c2)cc1C#Cc1cnc2ccc(OCCNC(C)C)nn12 :: 8.44

Problem: Sample Cc1ccc(C(=O)Nc2ccc(CN3CCN(C)CC3)c(C(F)(F)F)c2)cc1C#Cc1cnc2ccc(OCCN3CCOCC3)nn12 — what was its pIC50?
Result: 6.32

Problem: Sample Cc1cn(-c2cc(NC(=O)c3cc(C#Cc4cnc5ccc(OCCN6CCOCC6)nn45)c(C)cc3F)cc(C(C)(C)C#N)c2)cn1 — what was its pIC50?
Result: 6.46
